- Tested on: UACC-62
- assay: NCI tumour cell line growth inhibition, 48 h
Activity calls are given as the source filed them. No stated cut-off is given here; in the data, active = GI50 up to about 1.1 µM and inactive = higher.
metric.name: GI50

[[record]]
compound = "CCCCCCCCCCCCCCCC(=O)OC(COC(C)=O)CO[PH](=O)O (stereo not given)"
experimental_value = "37.3 µM (inactive)"

[[record]]
compound = "O=C(CNc1ccc([N+](=O)[O-])cc1)Nn1c(-c2ccccc2)nc2ccccc2c1=O"
experimental_value = "1.32 µM (inactive)"

[[record]]
compound = "Cc1ccc(CC2(OCCN(C)C)CCC(C(C)(C)C)CC2)cc1 (stereo not given)"
experimental_value = "3.31 µM (inactive)"

[[record]]
compound = "CCc1c(OC(C)=O)c2c(NC3OCC(OC(C)=O)C(OC(C)=O)C3OC(C)=O)nc(SC)nc2oc1=O (stereo not given)"
experimental_value = "> 100 µM (inactive)"

[[record]]
compound = "COC(=O)/C=C\\C(C#N)(C#N)/N=C/c1ccc(OC)cc1"
experimental_value = "15.9 µM (inactive)"


* * *

- Test system: KM12
- assay: NCI tumour cell line growth inhibition, 48 h
Counter-ions that a name gives are not always drawn. Calls of active or inactive are those of the source. Cut-off read from the data, not from the text of the source: active = GI50 up to about 1.1 µM and inactive = higher.
Classes used: Y = active, N = inactive

[[record]]
compound = "O=C(O)[C@@H]1CCS(=O)(=O)N1"
target_entity = "KM12"
group_label = "N"

[[record]]
compound = "Cc1c2cc[n+](C)cc2c(C)c2c1oc1ccccc12"
target_entity = "KM12"
group_label = "N"

[[record]]
compound = "CCc1c(OC(C)=O)c2c(NC3OCC(OC(C)=O)C(OC(C)=O)C3OC(C)=O)nc(SC)nc2oc1=O (stereo unspecified)"
target_entity = "KM12"
group_label = "N"

[[record]]
compound = "Cc1ccc(Nc2nc3[nH]ccc3c(=O)[nH]2)cc1"
target_entity = "KM12"
group_label = "N"

[[record]]
compound = "COc1ccccc1N1CCN(CCCNC(=O)c2cc(Cl)c(N)c(Cl)c2)CC1"
target_entity = "KM12"
group_label = "N"

[[record]]
compound = "COc1cccc(C2c3cc4c(cc3OC(N3CCCCC3)C2C)OCO4)c1OC (stereo unspecified)"
target_entity = "KM12"
group_label = "N"

[[record]]
compound = "CNC(C)Cc1ccccc1OC (stereo unspecified) [METHOXYPHENAMINE HYDROCHLORIDE]"
target_entity = "KM12"
group_label = "N"

[[record]]
compound = "CCOC(=O)c1c(SC(=O)c2ccc(C(C)(C)C)cc2)n(-c2ccccc2)c(=S)n(-c2ccccc2)c1=O"
target_entity = "KM12"
group_label = "N"

[[record]]
compound = "CCOC(=O)C(CNc1ccc(O)cc1)NC(=O)c1ccccc1 (stereo unspecified)"
target_entity = "KM12"
group_label = "N"

[[record]]
compound = "O=C1CCSSCCC(=O)Nc2ccccc2N1"
target_entity = "KM12"
group_label = "N"

[[record]]
compound = "O=C(O)C1C(C(=O)O)C23CC2(C(=O)O)C2(C(=O)O)CCC3=C3CCCC312 (stereo unspecified)"
target_entity = "KM12"
group_label = "N"

[[record]]
compound = "COc1cc2c(c(O)c1OC)C(=O)[C@@H]1CCC(=O)N1C2"
target_entity = "KM12"
group_label = "N"

[[record]]
compound = "CN(C)CCNC(=O)C(C)(C)Oc1ccc(C(=O)c2ccc(Cl)cc2)cc1Cl"
target_entity = "KM12"
group_label = "N"

[[record]]
compound = "CC1C/C(=N\\N(C)C)C(C#N)(C#N)C1(C#N)C#N (stereo unspecified)"
target_entity = "KM12"
group_label = "N"

[[record]]
compound = "COC1/C=C/C(C)C(OC)CC(O)/C=C/C(C)C(C(C)C(OC)C(C)CCC(=O)C(C)C(C/C=C/N(C)C=O)OC)OC(=O)/C=C/C=C(\\C)CC(OC)CC2=CC(=O)O[C@@H](C(C)C(OC)C1)[C@H]2O (stereo partly specified)"
target_entity = "KM12"
group_label = "Y"

[[record]]
compound = "C#CCCOC(=O)CC1=C(C)/C(=C/c2ccc([S+](C)[O-])cc2)c2ccc(F)cc21 (stereo unspecified)"
target_entity = "KM12"
group_label = "N"

[[record]]
compound = "O=C(NC1CC1)c1c(O)[nH]c(=S)[nH]c1=O"
target_entity = "KM12"
group_label = "N"

[[record]]
compound = "O=c1oc2c3ccc4ccccc4c3n(CCCN3CCCCC3)c2c2ccccc12"
target_entity = "KM12"
group_label = "N"

[[record]]
compound = "O=[N+]([O-])/C(C(Cl)=C(Cl)Cl)=C(\\SCc1ccccc1)N1CCCCC1"
target_entity = "KM12"
group_label = "N"

[[record]]
compound = "O/N=C1/CCCc2nonc21"
target_entity = "KM12"
group_label = "N"

[[record]]
compound = "O=C1C=CC(=O)c2ccc(=O)ccc21"
target_entity = "KM12"
group_label = "N"

